Where these numbers come from: ChEMBL document CHEMBL1140927

Entries and their Activity
study_target: UniProtKB P08684
Sequence (P08684 whole entry): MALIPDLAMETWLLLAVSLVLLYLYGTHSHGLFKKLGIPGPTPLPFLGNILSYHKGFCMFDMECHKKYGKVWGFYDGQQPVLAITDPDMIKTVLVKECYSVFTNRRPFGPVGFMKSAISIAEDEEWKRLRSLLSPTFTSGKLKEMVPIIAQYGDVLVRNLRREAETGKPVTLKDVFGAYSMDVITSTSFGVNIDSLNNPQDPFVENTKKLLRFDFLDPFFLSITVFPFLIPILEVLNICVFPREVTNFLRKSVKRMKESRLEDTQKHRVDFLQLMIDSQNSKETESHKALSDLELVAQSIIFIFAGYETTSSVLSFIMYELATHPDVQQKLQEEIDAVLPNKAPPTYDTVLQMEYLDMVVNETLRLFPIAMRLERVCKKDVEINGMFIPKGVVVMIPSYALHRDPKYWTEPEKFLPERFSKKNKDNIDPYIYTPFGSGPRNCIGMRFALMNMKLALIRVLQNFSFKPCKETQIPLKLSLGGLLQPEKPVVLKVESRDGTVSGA
assay_procedure: Inhibition of human CYP3A4 expressed in Escherichia coli using diethoxyfluorescein substrate assessed as decrease in enzyme activity by time dependent inhibition assay
Type: ADME
Parameters: unit not given here
# output: bare number, no unit

# compound, measured
data = [
    ("CC(C(=O)N1CCC(Nc2ccc(F)cc2)CC1)c1ccc(CN2C[C@@H](C)N[C@@H](C)C2)cc1 (stereo partly specified)", 7.6),
    ("C[C@@H]1CN(Cc2ccc(C(C)(C)C(=O)N3CCC(Nc4ccc(F)cc4)CC3)cc2)C[C@H](C)N1", 6.1),
    ("C[C@@H]1CN(Cc2ccc(CC(=O)N3CCC(Nc4ccc(F)cc4)CC3)cc2)C[C@H](C)N1", 2.7),
    ("C[C@H]1CN(Cc2ccc(CC(=O)N3CCC(Nc4cccc(C#N)c4)CC3)cc2)CCN1", 2),
    ("C[C@H]1CN(Cc2ccc(CC(=O)N3CCC(Nc4cccc(F)c4)CC3)cc2)CCN1 [CAMICINAL]", 1.4),
]

Ask: Fill blank: measured Activity of the compound `C[C@H]1CN(Cc2ccc(CCC(=O)N3CCC(Nc4cccc(F)c4)CC3)cc2)CCN1` is ____.
Result: 3.2
